molecular target: Recombinant human ULK1 (1-649) (Homo sapiens (Human), UniProt O75385); experiment: ULK1 ADP Glo kinase activity assay, new method (ULKtide peptide substrate); settings: 25° C., 40 minutes, read-out: ULK1 biochemical IC50
Sequence (O75385 1-649): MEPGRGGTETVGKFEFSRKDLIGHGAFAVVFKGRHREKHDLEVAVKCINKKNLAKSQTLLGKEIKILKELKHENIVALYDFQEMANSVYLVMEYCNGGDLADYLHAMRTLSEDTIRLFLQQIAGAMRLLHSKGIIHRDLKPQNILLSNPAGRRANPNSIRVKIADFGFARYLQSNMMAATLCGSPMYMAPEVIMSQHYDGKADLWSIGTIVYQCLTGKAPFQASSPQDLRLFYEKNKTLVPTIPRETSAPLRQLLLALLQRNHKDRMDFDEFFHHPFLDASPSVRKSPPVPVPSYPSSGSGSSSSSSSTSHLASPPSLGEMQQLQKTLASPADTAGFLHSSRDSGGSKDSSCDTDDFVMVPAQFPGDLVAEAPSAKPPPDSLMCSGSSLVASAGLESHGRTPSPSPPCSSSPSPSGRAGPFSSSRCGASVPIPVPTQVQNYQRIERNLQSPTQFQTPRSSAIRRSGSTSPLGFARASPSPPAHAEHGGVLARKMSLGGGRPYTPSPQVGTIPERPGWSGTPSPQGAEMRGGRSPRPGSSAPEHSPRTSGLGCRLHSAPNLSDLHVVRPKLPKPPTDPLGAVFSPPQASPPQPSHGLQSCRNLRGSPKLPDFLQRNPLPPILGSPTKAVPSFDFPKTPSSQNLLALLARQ
pIC50: −log10 of the molar value.
QUANTITY_MEASURED: pIC50

Some solved entries appear below for comparison.
>  <CHEM_SMILES>
O=C1c2sc(-c3nc(Nc4cc5c(cc4C4CC4)CNCC5)ncc3C(F)(F)F)cc2S(=O)(=O)CCN1CC(F)(F)F

>  <pIC50>
≥ 8.30

$$$$
>  <CHEM_SMILES>
O=C1c2sc(-c3nc(Nc4cc5c(cc4Cl)CCNC5)ncc3C(F)(F)F)cc2S(=O)(=O)CCN1C1COC1

>  <pIC50>
≥ 8.30

$$$$
>  <CHEM_SMILES>
O=C1c2sc(-c3nc(Nc4cc5c(cc4C4CC4)CNCC5)ncc3C(F)(F)F)cc2S(=O)(=O)CCN1C1CCC1

>  <pIC50>
≥ 8.30

$$$$

Ask | Entry under review: "CCc1cc2c(cc1Nc1ncc(C(F)(F)F)c(-c3cc4c(s3)C(=O)N(C)CCS4(=O)=O)n1)CNC2" . Reported pIC50?
Reply | ≥ 8.30

====

Here the recorded IC50 is given for each entry.
target: Recombinant human ULK1 (1-649) (Homo sapiens (Human), UniProt O75385); assay: ULK1 ADP Glo kinase activity assay, new method (ULKtide peptide substrate); settings: 25° C., 40 minutes, read-out: ULK1 biochemical IC50

Example results:
>  <CHEM_SMILES>
CN1CCS(=O)(=O)c2cc(-c3nc(Nc4cc(C5CCNCC5)ccc4Cl)ncc3C(F)(F)F)sc2C1=O

>  <QUANTITY_MEASURED>
IC50

>  <RESULT>
10 to 50 nM

$$$$
>  <CHEM_SMILES>
O=C1c2sc(-c3nc(Nc4ccc(N5CC6CC(C5)N6)cc4C4CC4)ncc3C(F)(F)F)cc2S(=O)(=O)CCN1C1CC1

>  <QUANTITY_MEASURED>
IC50

>  <RESULT>
≤ 5 nM

$$$$
>  <CHEM_SMILES>
CCc1cc(N2CCN[C@H](C)C2)ccc1Nc1ncc(C(F)(F)F)c(-c2cc3c(s2)C(=O)N(C2COC2)CCS3(=O)=O)n1

>  <QUANTITY_MEASURED>
IC50

>  <RESULT>
≤ 5 nM

$$$$
>  <CHEM_SMILES>
Cc1nn(C2CCNCC2)cc1Nc1ncc(C(F)(F)F)c(-c2cc3c(s2)C(=O)N(C)CCS3(=O)=O)n1

>  <QUANTITY_MEASURED>
IC50

>  <RESULT>
> 100 nM

$$$$
>  <CHEM_SMILES>
CCc1cc(N2CCN(C)[C@@H](C)C2)ccc1Nc1ncc(C(F)(F)F)c(-c2cc3c(s2)C(=O)N(C2COC2)CCS3(=O)=O)n1

>  <QUANTITY_MEASURED>
IC50

>  <RESULT>
≤ 5 nM

$$$$

# next compound below
Ask | Dear colleague, I am looking for the recorded IC50 of the following compound: "CN1C[C@@H]2C[C@H]1CN2c1ccc(Nc2ncc(C(F)(F)F)c(-c3cc4c(s3)C(=O)N(C3CC3)CCS4(=O)=O)n2)c(C2CC2)c1"
Reply | ≤ 5 nM

====

molecular target: Recombinant human ULK1 (1-649) (Homo sapiens (Human), UniProt O75385); assay: ULK1 ADP Glo kinase activity assay, new method (ULKtide peptide substrate); conditions: 25° C., 40 minutes, read-out: ULK1 biochemical IC50
pIC50: −log10 of the molar value.
Measured pIC50 of individual entries

The following compounds have reported results that may help.
>  <COMPOUND>
O=C1c2sc(-c3nc(Nc4cc5c(cc4C4CC4)CN(CC4COC4)CC5)ncc3C(F)(F)F)cc2S(=O)(=O)CCN1C1CC1 [Example 234]

>  <pIC50>
≥ 8.30

$$$$
>  <COMPOUND>
CC(C)(O)CN1CCc2cc(Nc3ncc(C(F)(F)F)c(-c4cc5c(s4)C(=O)N(C4COC4)CCS5(=O)=O)n3)c(C3CC3)cc2C1 [Example 291]

>  <pIC50>
≥ 8.30

$$$$
>  <COMPOUND>
CCc1cc(N2C[C@@H]3C[C@H]2CN3C)ccc1Nc1ncc(C(F)(F)F)c(-c2cc3c(s2)C(=O)N(C2COC2)CCS3(=O)=O)n1 [Example 346]

>  <pIC50>
8.00 to 8.30

$$$$
>  <COMPOUND>
CC(C)(F)CN1CCc2cc(Nc3ncc(C(F)(F)F)c(-c4cc5c(s4)C(=O)N(C4COC4)CCS5(=O)=O)n3)c(C3CC3)cc2C1 [Example 300]

>  <pIC50>
7.30 to 8.00

$$$$
>  <COMPOUND>
O=C1NCCS(=O)(=O)c2cc(-c3nc(Nc4cc5c(cc4Cl)CNC5)ncc3C(F)(F)F)sc21 [Example 180]

>  <pIC50>
≥ 8.30

$$$$
>  <COMPOUND>
CCc1cc(C2CCN(CC(F)(F)F)CC2)ccc1Nc1ncc(C(F)(F)F)c(-c2cc3c(s2)C(=O)N(C2COC2)CCS3(=O)=O)n1 [Example 298]

>  <pIC50>
7.30 to 8.00

$$$$

Ask | Report pIC50 for CCc1cc2c(cc1Nc1ncc(C(F)(F)F)c(-c3cc4c(s3)C(=O)N(C3CC3)CCS4(=O)=O)n1)CNCC2 [Example 220] please.
Reply | ≥ 8.30

Ask | For the compound CN1CCS(=O)(=O)c2cc(-c3nc(Nc4ccc(N5C[C@H]6C[C@@H]5CN6)cc4C4CC4)ncc3C(F)(F)F)sc2C1=O [Example 379] , what pIC50 is on record?
Reply | ≥ 8.30

Ask | Recorded pIC50 for N#CCN1CCc2cc(Nc3ncc(C(F)(F)F)c(-c4cc5c(s4)C(=O)N(C4COC4)CCS5(=O)=O)n3)c(C3CC3)cc2C1 [Example 285] , please?
Reply | 8.00 to 8.30

Ask | Fill in the blank: the reported pIC50 of O=C1c2sc(-c3nc(Nc4cc5c(cc4C4CC4)CN(C4COC4)CC5)ncc3C(F)(F)F)cc2S(=O)(=O)CCN1C1COC1 [Example 292] is ____.
Reply | ≥ 8.30

====

target: Recombinant human ULK1 (1-649) (Homo sapiens (Human), UniProt O75385); experiment: ULK1 ADP Glo kinase activity assay, new method (ULKtide peptide substrate); settings: 25° C., 40 minutes, read-out: ULK1 biochemical IC50
Reported IC50 values for a set of molecules

Worked set:
>  <MOLECULE>
CCc1cc(C2CCN(CC(F)(F)F)CC2)ccc1Nc1ncc(C(F)(F)F)c(-c2cc3c(s2)C(=O)N(C2CC2)CCS3(=O)=O)n1 [Example 288]

>  <IC50>
> 100 nM

$$$$
>  <MOLECULE>
O=C1c2sc(-c3nc(Nc4cc5c(cc4C4CC4)CN(CCF)CC5)ncc3C(F)(F)F)cc2S(=O)(=O)CCN1C1CC1 [Example 249]

>  <IC50>
≤ 5 nM

$$$$
>  <MOLECULE>
CN1CCc2cc(Nc3ncc(C(F)(F)F)c(-c4cc5c(s4)C(=O)N(C4CCC4)CCS5(=O)=O)n3)c(Cl)cc2C1 [Example 168]

>  <IC50>
≤ 5 nM

$$$$
>  <MOLECULE>
CN1CCc2cc(Nc3ncc(C(F)(F)F)c(-c4cc5c(s4)C(=O)NCCS5(=O)=O)n3)c(F)cc2C1 [Example 139]

>  <IC50>
≤ 5 nM

$$$$
>  <MOLECULE>
CCc1cc(N2C[C@H]3C[C@@H]2CN3C)ccc1Nc1ncc(C(F)(F)F)c(-c2cc3c(s2)C(=O)N(C2CC2)CCS3(=O)=O)n1 [Example 323]

>  <IC50>
≤ 5 nM

$$$$

Ask | Consider the molecule CN1CCN(c2ccc(Nc3ncc(C(F)(F)F)c(-c4cc5c(s4)C(=O)N(C4COC4)CCS5(=O)=O)n3)c(C3CC3)c2)C[C@H]1C(N)=O [Example 372] and give its measured IC50.
Reply | ≤ 5 nM

====

The reader will find reported IC50 values listed item by item below.
molecular target: Recombinant human ULK1 (1-649) (Homo sapiens (Human)); assay: ULK1 ADP Glo kinase activity assay (MBP substrate); settings: 25° C., 40 minutes, read-out: ULK1 biochemical IC50

Worked examples, 3 compounds total:
>  <CHEM_SMILES>
CN1CCC(n2cc(Nc3ncc(C(F)(F)F)c(-c4cc(S(C)(=O)=O)cs4)n3)c(C3CC3)n2)CC1

>  <IC50>
≤ 10 nM

$$$$
>  <CHEM_SMILES>
CS(=O)(=O)c1csc(-c2nc(Nc3cc4c(cc3Cl)CNCC4)ncc2C2CC2)c1

>  <IC50>
10 to 50 nM

$$$$
>  <CHEM_SMILES>
Cc1cnc(Nc2cc3c(cc2Cl)CNCC3)nc1-c1cc(S(C)(=O)=O)cs1

>  <IC50>
≤ 10 nM

$$$$

Ask | Dear colleague, I am looking for the recorded IC50 of the following compound: "NC(=O)c1csc(-c2nc(Nc3cc4c(cc3Cl)CNC4)ncc2C(F)(F)F)c1"
Reply | ≤ 10 nM
